Read-out: Interleukin 6 Receptor (IL6R), IL6R (gene 3570)
Assay: LTEA_HepaRG_IL6R: Life Technologies and Expression Analysis (LTEA) Assay for Interleukin 6 Receptor (IL6R) using HepaRG (AID 2283510)
Details: mRNA level, 48 h; actives raise or lower the signal
Calls of active or inactive are those of the source. The calls were made as follows: active = hit-call score of the fitted dose curve at least 0.9, where 1 is the maximum; inactive = score below 0.9.
Output constraint: value belongs to active, inactive

See these solved cases before continuing.
>  <molecule>
Cc1ccc(N)cc1O

>  <class assignment>
inactive

$$$$
>  <molecule>
CC1=CC(=O)CC(C)(C)C1

>  <class assignment>
inactive

$$$$
>  <molecule>
C[C@](N)(Cc1ccc(O)c(O)c1)C(=O)O

>  <class assignment>
inactive

$$$$
>  <molecule>
CC(=O)OC[C@H]1O[C@@](COC(C)=O)(O[C@H]2O[C@H](COC(C)=O)[C@@H](OC(C)=O)[C@H](OC(C)=O)[C@H]2OC(C)=O)[C@@H](OC(C)=O)[C@@H]1OC(C)=O

>  <class assignment>
inactive

$$$$
>  <molecule>
Cc1ccc(S(=O)(=O)O)cc1C

>  <class assignment>
inactive

$$$$

**Query** What is the recorded call for this molecule in the test? CC1(C)C(=O)N(Br)C(=O)N1Br
**Result** inactive

**Query** What is the recorded call for this molecule in the test? CC(C)=CCC/C(C)=C/CO
**Result** inactive

**Query** What is the recorded call for this molecule in the test? CNS(=O)(=O)c1cc(C(=O)N2CCC(CCN3C4CCC3CC(n3c(C)nc5ccccc53)C4)(c3cccc(F)c3)CC2)c(Cl)cc1F (stereo unspecified)
**Result** inactive

**Query** What is the recorded call for this molecule in the test? CCc1cc(SCc2sc(-c3ccc(C(F)(F)F)cc3)nc2CN2CCN(c3ccc(OC)cc3)CC2)ccc1OCC(=O)O
**Result** active

**Query** What is the recorded call for this molecule in the test? CCOCCOCCOCCO
**Result** inactive

**Query** What is the recorded call for this molecule in the test? Cc1c(-c2cccnc2)c2ccccc2n1CCCCC(=O)O
**Result** inactive

**Query** What is the recorded call for this molecule in the test? O=C(O)CC(O)C(=O)O (stereo unspecified)
**Result** inactive

Reference for the values: PubChem BioAssay (EPA / NIEHS)
